Molecular target: HNF4alpha8 (COS-7 nuclear extract) (Homo sapiens, UniProt P41235-5 1-452)
Sequence: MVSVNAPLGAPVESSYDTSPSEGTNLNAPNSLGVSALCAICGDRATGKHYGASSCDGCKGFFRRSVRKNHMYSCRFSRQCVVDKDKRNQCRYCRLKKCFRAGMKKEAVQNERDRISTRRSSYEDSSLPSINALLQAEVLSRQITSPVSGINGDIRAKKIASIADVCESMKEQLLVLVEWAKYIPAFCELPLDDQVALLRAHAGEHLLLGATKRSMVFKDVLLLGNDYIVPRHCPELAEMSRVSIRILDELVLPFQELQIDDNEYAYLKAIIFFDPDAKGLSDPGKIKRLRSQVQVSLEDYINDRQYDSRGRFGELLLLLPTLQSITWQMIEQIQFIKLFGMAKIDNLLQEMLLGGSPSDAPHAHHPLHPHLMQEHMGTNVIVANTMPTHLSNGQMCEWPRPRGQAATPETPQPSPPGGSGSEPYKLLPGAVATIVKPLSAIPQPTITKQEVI
Assay: protein-binding microarray; COS-7 nuclear extract on double-stranded Agilent 4x180k PBM; binding buffer, salt, pH and temperature not given in the material; high values mean tight binding
Conditions: chain copies: 2; label: 3' end of strand 1 on the slide; dsDNA, one strand shown
Whole data set: some 18,000 sequences, median “log2 normalized intensity” near 0.36, cut for the highest 2% near 7.3. For the sample, the highest values were picked, then their nearest neighbours and some sequences at random.
experimental_readout: binding signal (log2 normalized intensity)
Numbers only here, please. The scale is log2 normalized intensity.

Data request: Fill in binding signal for record GACCTTTGGACTTGATAGAGTTTAAGTCTTGCCTAGGGAGATTAGAGTATCGGTCGA
Data returned: 7.2

Data request: Fill in binding signal for record TCTGGGATGTTGGGAGGAGTGGACTTTGATGCCTAGGGAGATTAGAGTATCGGTCGA
Data returned: 6.84

Data request: Fill in binding signal for record CTCCTGACCTTTGGACTTGATAGAGTTTAAGCCTAGGGAGATTAGAGTATCGGTCGA
Data returned: 8.25

Data request: Fill in binding signal for record GGGCTGAGGATGAGGACTTTGGTCTTATTAGCCTAGGGAGATTAGAGTATCGGTCGA
Data returned: 4.45

Data request: Fill in binding signal for record ACACCTTTTCTAGCTGAGTTGACCTGTGTTGCCTAGGGAGATTAGAGTATCGGTCGA
Data returned: 4.51

Data request: Fill in binding signal for record GCCTCTTTATCTCCTCCCCTTGAGACTTTAGCCTAGGGAGATTAGAGTATCGGTCGA
Data returned: 2.97

Data request: Fill in binding signal for record GGGACTAGCCTTATCTCAGATGAGACTTTGGCCTAGGGAGATTAGAGTATCGGTCGA
Data returned: 2.03

Data request: Fill in binding signal for record TACAGAATTCTCATGGAGGACTTTGGCCTTGCCTAGGGAGATTAGAGTATCGGTCGA
Data returned: 7.81

Data request: Fill in binding signal for record TCAGATGAGACTTTGGACTTTTGAACTAAGGCCTAGGGAGATTAGAGTATCGGTCGA
Data returned: 7.23

* * *

What binding signal was measured for each of the following?
Biological target: HNF4alpha8 (COS-7 nuclear extract) (Homo sapiens, UniProt P41235-5 1-452)
Sequence: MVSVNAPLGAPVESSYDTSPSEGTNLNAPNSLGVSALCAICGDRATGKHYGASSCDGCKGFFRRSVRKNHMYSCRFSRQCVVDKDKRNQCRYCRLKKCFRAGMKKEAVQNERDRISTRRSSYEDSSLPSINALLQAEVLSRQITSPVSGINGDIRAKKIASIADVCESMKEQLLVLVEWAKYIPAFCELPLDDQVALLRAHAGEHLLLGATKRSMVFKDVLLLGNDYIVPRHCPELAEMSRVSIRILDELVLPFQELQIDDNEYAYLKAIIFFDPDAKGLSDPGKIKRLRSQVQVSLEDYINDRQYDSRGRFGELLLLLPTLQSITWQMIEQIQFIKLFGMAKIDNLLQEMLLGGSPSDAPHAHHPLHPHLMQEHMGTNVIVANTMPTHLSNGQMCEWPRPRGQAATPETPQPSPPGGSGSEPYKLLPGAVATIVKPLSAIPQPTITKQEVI
Assay: protein-binding microarray; COS-7 nuclear extract on double-stranded Agilent 4x180k PBM; binding buffer, salt, pH and temperature not given in the material; high values mean tight binding
Settings: chain copies: 2; label: 3' end of strand 1 on the slide; dsDNA, one strand shown
Whole data set: some 18,000 sequences, median “log2 normalized intensity” near 0.36, cut for the highest 2% near 7.3. For the sample, the highest values were picked, then their nearest neighbours and some sequences at random.
Numbers only here, please. The scale is log2 normalized intensity.

Data request: Fill in binding signal for record CTTTCCTGGTGCCTCCTTATCTCCCCAACTGCCTAGGGAGATTAGAGTATCGGTCGA
Data returned: 3.48

Data request: Fill in binding signal for record CACAGTGTAGAAGGCAAGGGTCAAGATGTCGCCTAGGGAGATTAGAGTATCGGTCGA
Data returned: 2.31

Data request: Fill in binding signal for record AACTTTTCCATGTCCAAAGGTCTTCATGAGGCCTAGGGAGATTAGAGTATCGGTCGA
Data returned: 4.33

Data request: Fill in binding signal for record CTATTCTCTAAACTCTGGGCTCTATTTGGAGCCTAGGGAGATTAGAGTATCGGTCGA
Data returned: 0.51

Data request: Fill in binding signal for record GTGCAAAGGCCTTAAAGTGTAAATATTTGAGCCTAGGGAGATTAGAGTATCGGTCGA
Data returned: 0.546

Data request: Fill in binding signal for record TTAACACAAGTTATTACCGTGATGTTCGTTGCCTAGGGAGATTAGAGTATCGGTCGA
Data returned: 1.14

Data request: Fill in binding signal for record CTTCCAGTCCACAGTCCAGTGACTATCTGCGCCTAGGGAGATTAGAGTATCGGTCGA
Data returned: 1.02

Data request: Fill in binding signal for record TCTTGTGGTAATCTCTTTTGTGTTAGAGGGGCCTAGGGAGATTAGAGTATCGGTCGA
Data returned: 1.02

Data request: Fill in binding signal for record CTGATGAATAGAAAGAGGTCAATGTACTTAGCCTAGGGAGATTAGAGTATCGGTCGA
Data returned: 2.94

* * *

Target: HNF4alpha8 (COS-7 nuclear extract) (Homo sapiens, UniProt P41235-5 1-452)
Sequence: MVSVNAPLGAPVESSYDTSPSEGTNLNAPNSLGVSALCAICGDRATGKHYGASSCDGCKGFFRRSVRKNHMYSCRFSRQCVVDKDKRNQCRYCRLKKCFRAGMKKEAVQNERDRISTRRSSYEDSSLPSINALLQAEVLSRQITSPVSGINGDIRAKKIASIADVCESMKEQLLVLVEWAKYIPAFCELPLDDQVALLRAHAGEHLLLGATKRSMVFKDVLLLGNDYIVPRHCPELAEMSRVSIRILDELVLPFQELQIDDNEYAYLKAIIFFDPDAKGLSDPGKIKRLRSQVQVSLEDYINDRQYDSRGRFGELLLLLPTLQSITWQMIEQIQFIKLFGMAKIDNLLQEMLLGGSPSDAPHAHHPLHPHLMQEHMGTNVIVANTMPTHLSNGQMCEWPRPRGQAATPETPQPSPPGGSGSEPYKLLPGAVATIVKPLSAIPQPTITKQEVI
Test: protein-binding microarray; COS-7 nuclear extract on double-stranded Agilent 4x180k PBM; binding buffer, salt, pH and temperature not given in the material; high values mean tight binding
Details: chain copies: 2; label: 3' end of strand 1 on the slide; dsDNA, one strand shown
The full ranking holds about 18,000 sequences; the median of “log2 normalized intensity” is about 0.36, and the highest 2% start at about 7.3. The full list was thinned out, with the highest values kept by preference.
experimental_readout: binding signal (log2 normalized intensity)
Numbers only here, please. The scale is log2 normalized intensity.

Data request: Fill in binding signal for record TTTTTTTTTTGAGATGGAATCTTGCCCTGTGCCTAGGGAGATTAGAGTATCGGTCGA
Data returned: 3.54

Data request: Fill in binding signal for record TTGAGCTGGATGACCTTTGTCCTGGCACAAGCCTAGGGAGATTAGAGTATCGGTCGA
Data returned: 8

Data request: Fill in binding signal for record CACTGGGCTGATGACCTTTGACTGAGATGGGCCTAGGGAGATTAGAGTATCGGTCGA
Data returned: 5.81

Data request: Fill in binding signal for record ATGGGATGACCTTTGAGCAATAGGAAATGGGCCTAGGGAGATTAGAGTATCGGTCGA
Data returned: 4.79

Data request: Fill in binding signal for record CATGGACTTTGAACCAAGATATGCTAACATGCCTAGGGAGATTAGAGTATCGGTCGA
Data returned: 5.27

Data request: Fill in binding signal for record CTGGATGACCTTTGTCCTGGCACAACTGGAGCCTAGGGAGATTAGAGTATCGGTCGA
Data returned: 6.78

Data request: Fill in binding signal for record CTAAGAGATTTGAATATGTACATGGACTTTGCCTAGGGAGATTAGAGTATCGGTCGA
Data returned: 6.92

Data request: Fill in binding signal for record CATCTTTGAGCTGGATGACCTTTGTCCTGGGCCTAGGGAGATTAGAGTATCGGTCGA
Data returned: 9.19

Data request: Fill in binding signal for record TCATTTCTGCTTGCAACCAAAGGAGTCCTGGCCTAGGGAGATTAGAGTATCGGTCGA
Data returned: -0.447

Recorded values, source paper PMC10726135.
